# ASSAYED_SYSTEM: Neuropeptide S receptor (Mus musculus)
# PROTOCOL_NOTES: Agonist activity at mouse NPSR expressed in HEK293 cells assessed as increase in intracellular calcium mobilization at 10 uM by FLIPR
# Format: functional, cell-based
Please note: rule met applies when Activity is 90% or greater, and rule not met applies otherwise.

Could you tell me if the measured Activity of H-SFSNGVGTGMKKTSFQRAKS-OH reaches 90% or more?
rule met

Could you tell me if the measured Activity of H-SFRFGVGTGMKKTSFQRAKS-OH reaches 90% or more?
rule met

Could you tell me if the measured Activity of H-SFDNGVGTGMKKTSFQRAKS-OH reaches 90% or more?
rule not met

Could you tell me if the measured Activity of H-SFLNGVGTGMKKTSFQRAKS-OH reaches 90% or more?
rule not met

Could you tell me if the measured Activity of H-SFYNGVGTGMKKTSFQRAKS-OH reaches 90% or more?
rule not met

Could you tell me if the measured Activity of H-SFVNGVGTGMKKTSFQRAKS-OH reaches 90% or more?
rule met

====

Please provide measured Emax for the entries that follow.
# ASSAYED_SYSTEM: Neuropeptide S receptor (Mus musculus) (UniProt Q8BZP8)
# Sequence (Q8BZP8 whole entry): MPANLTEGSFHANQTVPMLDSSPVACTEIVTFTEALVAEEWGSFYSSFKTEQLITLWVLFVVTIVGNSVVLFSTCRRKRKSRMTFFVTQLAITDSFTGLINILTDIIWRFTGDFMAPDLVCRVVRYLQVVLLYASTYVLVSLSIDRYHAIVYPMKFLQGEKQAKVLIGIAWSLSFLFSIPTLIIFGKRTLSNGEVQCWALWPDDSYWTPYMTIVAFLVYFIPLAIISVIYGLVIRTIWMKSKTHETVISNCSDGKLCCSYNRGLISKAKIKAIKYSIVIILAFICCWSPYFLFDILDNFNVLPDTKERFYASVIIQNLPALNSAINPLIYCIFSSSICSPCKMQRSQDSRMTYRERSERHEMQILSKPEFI
# PROTOCOL_NOTES: Agonist activity at mouse NPSR expressed in HEK293 cells assessed as increase in intracellular calcium mobilization by FLIPR relative to baseline
# Assay type: functional, cell-based
Numbers only, in %.

See these solved cases before continuing.
SUBSTANCE | ASSAYED_SYSTEM | ASSAY_ENDPOINT | MEASURED_RESULT
H-SFHNGVGTGMKKTSFQRAKS-OH | Neuropeptide S receptor (Mus musculus) (UniProt Q8BZP8) | Emax | 273
H-SFKNGVGTGMKKTSFQRAKS-OH | Neuropeptide S receptor (Mus musculus) (UniProt Q8BZP8) | Emax | 290
H-SFRQGVGTGMKKTSFQRAKS-OH | Neuropeptide S receptor (Mus musculus) (UniProt Q8BZP8) | Emax | 210
H-SFGNGVGTGMKKTSFQRAKS-OH | Neuropeptide S receptor (Mus musculus) (UniProt Q8BZP8) | Emax | 264
H-SFRTGVGTGMKKTSFQRAKS-OH | Neuropeptide S receptor (Mus musculus) (UniProt Q8BZP8) | Emax | 253
H-SFCNGVGTGMKKTSFQRAKS-OH | Neuropeptide S receptor (Mus musculus) (UniProt Q8BZP8) | Emax | 256
H-SFQNGVGTGMKKTSFQRAKS-OH | Neuropeptide S receptor (Mus musculus) (UniProt Q8BZP8) | Emax | 295
H-SFRNGVGTGMKKTSFQRAKS-OH [NEUROPEPTIDE S] | Neuropeptide S receptor (Mus musculus) (UniProt Q8BZP8) | Emax | 234

Emax reading for H-SFTNGVGTGMKKTSFQRAKS-OH : 272

====

Please provide measured Activity for the entries that follow.
# ASSAYED_SYSTEM: UniProtKB Q8BZP8
# PROTOCOL_NOTES: Agonist activity at mouse NPSR expressed in HEK293 cells assessed as increase in intracellular calcium mobilization at 10 uM by FLIPR
# Assay type: functional, cell-based
Non-standard residues stand in square brackets, D forms with d. Residues, ends and D or L forms follow the SMILES beside them. Nva(4-oxo) = CC(=O)C[C@H](N)C(=O)O; 2Pal = N[C@@H](Cc1ccccn1)C(=O)O; 4Pal = N[C@@H](Cc1ccncc1)C(=O)O
Numbers only, in %.

// each listed compound needs a value for Activity
1. CNC(=O)C[C@H](NC(=O)[C@H](CCCNC(=N)N)NC(=O)[C@H](Cc1ccccc1)NC(=O)[C@@H](N)CO)C(=O)NCC(=O)N[C@H](C(=O)NCC(=O)N[C@H](C(=O)NCC(=O)N[C@@H](CCSC)C(=O)N[C@@H](CCCCN)C(=O)N[C@@H](CCCCN)C(=O)N[C@H](C(=O)N[C@@H](CO)C(=O)N[C@@H](Cc1ccccc1)C(=O)N[C@@H](CCC(N)=O)C(=O)N[C@@H](CCCNC(=N)N)C(=O)N[C@@H](C)C(=O)N[C@@H](CCCCN)C(=O)N[C@@H](CO)C(=O)O)[C@@H](C)O)[C@@H](C)O)C(C)C (H-SFRD(NHMe)GVGTGMKKTSFQRAKS-OH)
2. CSCC[C@H](NC(=O)CNC(=O)[C@@H](NC(=O)CNC(=O)[C@@H](NC(=O)CNC(=O)[C@H](CC(C)=O)NC(=O)[C@H](CCCNC(=N)N)NC(=O)[C@H](Cc1ccccc1)NC(=O)[C@@H](N)CO)C(C)C)[C@@H](C)O)C(=O)N[C@@H](CCCCN)C(=O)N[C@@H](CCCCN)C(=O)N[C@H](C(=O)N[C@@H](CO)C(=O)N[C@@H](Cc1ccccc1)C(=O)N[C@@H](CCC(N)=O)C(=O)N[C@@H](CCCNC(=N)N)C(=O)N[C@@H](C)C(=O)N[C@@H](CCCCN)C(=O)N[C@@H](CO)C(=O)O)[C@@H](C)O (H-SFR[Nva(4-oxo)]GVGTGMKKTSFQRAKS-OH)
3. CSCC[C@H](NC(=O)CNC(=O)[C@@H](NC(=O)CNC(=O)[C@@H](NC(=O)CNC(=O)[C@H](CC(N)=O)NC(=O)[C@H](Cc1ccccn1)NC(=O)[C@H](Cc1ccccc1)NC(=O)[C@@H](N)CO)C(C)C)[C@@H](C)O)C(=O)N[C@@H](CCCCN)C(=O)N[C@@H](CCCCN)C(=O)N[C@H](C(=O)N[C@@H](CO)C(=O)N[C@@H](Cc1ccccc1)C(=O)N[C@@H](CCC(N)=O)C(=O)N[C@@H](CCCNC(=N)N)C(=O)N[C@@H](C)C(=O)N[C@@H](CCCCN)C(=O)N[C@@H](CO)C(=O)O)[C@@H](C)O (H-SF[2Pal]NGVGTGMKKTSFQRAKS-OH)
4. CSCC[C@H](NC(=O)CNC(=O)[C@@H](NC(=O)CNC(=O)[C@@H](NC(=O)CNC(=O)[C@H](CC(N)=O)NC(=O)[C@H](Cc1ccncc1)NC(=O)[C@H](Cc1ccccc1)NC(=O)[C@@H](N)CO)C(C)C)[C@@H](C)O)C(=O)N[C@@H](CCCCN)C(=O)N[C@@H](CCCCN)C(=O)N[C@H](C(=O)N[C@@H](CO)C(=O)N[C@@H](Cc1ccccc1)C(=O)N[C@@H](CCC(N)=O)C(=O)N[C@@H](CCCNC(=N)N)C(=O)N[C@@H](C)C(=O)N[C@@H](CCCCN)C(=O)N[C@@H](CO)C(=O)O)[C@@H](C)O (H-SF[4Pal]NGVGTGMKKTSFQRAKS-OH)

188
136
19
154
